All figures here come from ChEMBL document CHEMBL5126506.

- Test system: MCF7
- METHOD NOTES: Anticancer activity against human MCF7 cells assessed as cell growth inhibition measured after 48 hrs by sulforhodamine B staining based analysis
- Type: functional
Threshold 30 µM: GI50 strictly smaller gives 1 (yes), otherwise 0 (no).

Reference set (4 entries):
* CC(=O)n1c(-c2cc3ccccc3oc2=O)nc2ccccc21 | 1 (yes)
* O=c1oc2ccccc2cc1-c1nc2ccccc2n1C(=S)Nc1ccccc1 | 1 (yes)
* O=c1oc2ccccc2c2cc(O)n3c4ccccc4nc3c12 | 0 (no)
* Cc1cn2c3ccccc3nc2c2c(=O)oc3ccccc3c12 | 1 (yes)

Moving on to the next compound.
Input `O=c1oc2ccccc2c2c(O)cn3c4ccccc4nc3c12` ; condition: GI50 strictly below 30 µM. Does it hold?
1 (yes)
